- testedOn: T1, TMPRSS11D, O60235
- T1 chain: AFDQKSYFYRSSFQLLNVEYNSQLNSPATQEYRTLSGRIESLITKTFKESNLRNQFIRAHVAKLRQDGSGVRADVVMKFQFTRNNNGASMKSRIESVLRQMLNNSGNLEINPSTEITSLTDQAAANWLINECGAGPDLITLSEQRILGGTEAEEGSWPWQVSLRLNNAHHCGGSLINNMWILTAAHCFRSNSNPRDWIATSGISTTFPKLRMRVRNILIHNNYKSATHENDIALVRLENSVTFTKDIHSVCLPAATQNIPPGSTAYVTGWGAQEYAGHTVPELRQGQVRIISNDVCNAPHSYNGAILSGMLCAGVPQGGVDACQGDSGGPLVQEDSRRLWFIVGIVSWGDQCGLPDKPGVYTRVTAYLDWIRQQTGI
- protocolDetails: enzyme inhibition, selectivity profile, Morrison tight-binding fit
quantityName: pKi
Answers are plain numbers, as −log10 of the molar value.

Problem: Which pKi reading was recorded for the binder RQAR (modifications not checked) [RQAR-ketobenzothiazole] ?
Solution: 8.08
